B1: TPR t1 (parent)
chain: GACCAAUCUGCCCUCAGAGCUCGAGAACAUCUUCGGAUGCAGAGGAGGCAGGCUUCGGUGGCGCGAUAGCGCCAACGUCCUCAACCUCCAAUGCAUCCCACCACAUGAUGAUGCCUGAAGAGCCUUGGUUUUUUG

variants of: B1; test: polymerase ribozyme fitness, log enrichment relative to wild type (log ratio); higher = more active; in vitro selection for triplet polymerase activity
Measured polymerase ribozyme fitness (log ratio) by item
endpoint: polymerase ribozyme fitness (log ratio)

GACCAAUCUGCCCUCAGAGCUCGAGAACAUCUUCGAAUGCAGAGGAGGCAGGCUUCGGUCGCGCGAUAGCGCCAACGCUCUCAAACUCCGAUGCAUCCCACCACAUGAUGAUGCCUGAAGAGCCUUGGUUUUUUG [G36A G60C U78C C79U C85A A90G]
-3.89
GACCAAUCUGCCCUCAGAGGUCGAGAACAUCUUCGGAUGCAGAGGAGGCAGGCUUCGGUGGCGCGAUAGCGCCAACGUCCUCAACCUCCCAUGCUUCCCACCACAUGAUGAUGCCUGAAGAGCCUUGGUUUUUUG [C20G A90C A95U]
-4.06
GACCAAUCUGCCCUGAGAGCUCGAGAACAUCUUCGGAUGCAGAGGAUGCAGGCUUCGGUGGCGCGAUAGCGCCAACGUCCUCAACCUCCAAUGCAUCCCACCACAUGAUGAUGCCUGAAGAGCCUUGGUUUUUUG [C15G G47U]
-3.95
GACCAAUCUGCCCUAAGAGCUCGAGAACAUCUUCGGAUGCAGAGGAUGCAGGCUUCGGUGGCGCGAUAGCGCCAACGUCCUCAACCUCCAAUGCAUCCCACCACAUGAUGAUGCCUGAAGAGCCUUGGUUUUUUG [C15A G47U]
-4.02
GACCAACCUGCCCUCAGAGCUCGAGAACAUCUUCGGAUGCAGAGGAGGCUGGCUUCGGUGGCGCGAUAGCGCCAACGUCCUUAACCUCCAAUGCAUCCCACCACAUGAUGAUGCCUGAAGAGCCUUGGUUUUUUG [U7C A50U C82U]
-0.98
